- system name: Tumor necrosis factor (Homo sapiens, UniProt P01375)
- Sequence (P01375 whole entry): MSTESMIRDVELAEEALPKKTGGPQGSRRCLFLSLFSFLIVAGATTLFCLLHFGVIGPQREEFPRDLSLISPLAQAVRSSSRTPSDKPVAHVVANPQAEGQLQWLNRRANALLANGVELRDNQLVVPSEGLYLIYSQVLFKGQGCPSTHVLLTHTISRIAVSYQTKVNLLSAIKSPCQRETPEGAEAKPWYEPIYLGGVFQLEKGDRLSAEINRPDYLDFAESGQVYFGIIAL
- assay remarks: TNF-alpha production in PBMC by ELISA method
measured quantity: IC50 (µM)
The answer is to be given in µM; state only the numeric part.

Worked cases, IC50 given:
molecule: CCCCn1c(=O)n(CCCC(=O)OCC)c(=O)c2nccnc21
measured quantity: IC50
reading: 15

molecule: CCOC(=O)CCCCn1c(=O)c2c(ncn2C)n(C)c1=O
measured quantity: IC50
reading: 11

molecule: CCOC(=O)Cn1c(=O)c2c(ncn2C)n(C)c1=O
measured quantity: IC50
reading: 200

molecule: CCOC(=O)CCCn1c(=O)c2nc(CC)c(CC)nc2n(C)c1=O
measured quantity: IC50
reading: 130

molecule: CCOC(=O)CCCn1c(=O)c2c([nH]c(=S)n2C)n(C)c1=O
measured quantity: IC50
reading: 100

Query string: So what's the measured IC50 for this one? CCOC(=O)CCCn1c(=O)c2nccnc2n(C2CCOC2)c1=O (stereo not drawn)
Result string: 19

###

Parameter IC50: see the listing below.
- system name: UniProtKB P01375
- assay remarks: TNF-alpha production in PBMC by ELISA method
The answer is to be given in µM; state only the numeric part.

Worked cases, IC50 given:
compound: CC(=O)CCCCn1c(=O)c2c(ncn2C)n(C)c1=O
IC50, µM: 85

compound: CCOC(=O)CCCn1c(=O)c2nccnc2n(Cc2ccccc2)c1=O
IC50, µM: 175

compound: CCOC(=O)CCCn1c(=O)c2c(nc(Br)n2C)n(C)c1=O
IC50, µM: 60

compound: CCCn1c(=O)n(CCCC(=O)OCC)c(=O)c2c1ncn2C
IC50, µM: 5

compound: COC(=O)/C=C\Cn1c(=O)c2nccnc2n(C)c1=O
IC50, µM: 25

compound: CCCCCCCn1c(=O)c2nsnc2n(C)c1=O
IC50, µM: 75

compound: CCCCCn1c(=O)n(CCCC(=O)OCC)c(=O)c2nccnc21
IC50, µM: 16

compound: CCOC(=O)CCCn1c(=O)c2c(ncn2C)n(C)c1=O
IC50, µM: 6

compound: CCCn1c(=O)n(CCCC(=O)OCC)c(=O)c2nsnc21
IC50, µM: 18

compound: CCOC(=O)CCCn1c(=O)c2nccnc2n(CC(C)C)c1=O
IC50, µM: 20

Query string: So what's the measured IC50 for this one? `CCOC(=O)CCn1c(=O)c2c(ncn2C)n(C)c1=O`
Result string: 10

Query string: So what's the measured IC50 for this one? `CCCn1c(=O)n(CCCC(=O)OCC)c(=O)c2nccnc21`
Result string: 5

Query string: So what's the measured IC50 for this one? `CCOC(=O)CCCn1c(=O)c2ccccc2n(C)c1=O`
Result string: 55

Query string: So what's the measured IC50 for this one? `CCCCOc1cc(C[C@@H]2CNC(=O)N2)ccc1OC`
Result string: 50

Query string: So what's the measured IC50 for this one? COc1ccc([C@@H]2CNC(=O)C2)cc1OC1CCCC1 (racemic)
Result string: 12

Query string: So what's the measured IC50 for this one? `CCOC(=O)CCCn1c(=O)c2nccnc2n(C)c1=O`
Result string: 12

Query string: So what's the measured IC50 for this one? `CCOC(=O)CCCn1c(=O)c2nsnc2n(C)c1=O`
Result string: 25
